// pIC50 lookup, one value per entry
- SUBJECT OF TEST: KRasG12C (Homo sapiens, UniProt P01116, G12C)
- Construct: biotin (biotinylated); made in house
- Sequence (P01116 1-188 isoform P01116-2 G12C): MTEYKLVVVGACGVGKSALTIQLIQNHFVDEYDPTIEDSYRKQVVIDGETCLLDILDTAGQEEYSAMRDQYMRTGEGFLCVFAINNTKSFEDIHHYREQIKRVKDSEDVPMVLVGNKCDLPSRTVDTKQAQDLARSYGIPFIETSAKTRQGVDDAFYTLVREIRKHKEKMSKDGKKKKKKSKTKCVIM
- ASSAY TEXT: KRasG12C functional assay (HTRF/FRET nucleotide exchange and Raf RBD binding)
- Format: biochemical
- TEST SETTINGS: GDP loaded biotinylated KRasG12C, samples incubated for 4 hrs, FRET readout; single experiment or average of two or more; read-out: KRasG12C functional assay IC50
Please express pIC50 as -log10 of the molar concentration.

COMPOUND	SUBJECT OF TEST	pIC50
C=CC(=O)N1CCN2Cc3cc(C#N)c(-c4c(O)cccc4F)c(Cl)c3OC[C@H]2C1 (single isomer, unassigned) [Example 22]	KRasG12C (Homo sapiens, UniProt P01116, G12C)	5.59

Q) Could you share which pIC50 value was measured for C=CC(=O)N1CCN2Cc3cc(C#CCN(C)C)c(-c4c(O)cccc4Cl)c(F)c3OC[C@H]2C1 (single isomer, unassigned) ?
A) 7.55

###

// KRasG12C M.S. Binding Mean adduct % lookup, one value per entry
- SUBJECT OF TEST: KRasG12C (Homo sapiens, UniProt P01116, G12C)
- Construct: biotin (biotinylated); made in house
- ASSAY TEXT: KRasG12C mass spectrometry adducting assay
- Type: binding
- TEST SETTINGS: test compound final concentration 10 μM, 4 hours reaction with 4 μM GDP loaded biotinylated KRasG12C
Phrase the answer as number then unit, nothing more needed.

In the examples that follow, each entry is paired with its recorded KRasG12C M.S. Binding Mean adduct %.
COMPOUND	KRasG12C M.S. Binding Mean adduct %
C=CC(=O)N1CCN2Cc3ccc(-c4c(C)ccc5[nH]ncc45)c(Cl)c3OC[C@@H]2C1 (single isomer, unassigned) [Example 4]	0%
C=CC(=O)N1CCN2Cc3cc(F)c(-c4c(O)cccc4Cl)c(F)c3OC[C@H]2C1 (single isomer, unassigned) [Example 43]	95%

Q) Could you share which KRasG12C M.S. Binding Mean adduct % value was measured for C=CC(=O)N1CCN2Cc3ccc(-c4c(C)ccc5[nH]ncc45)c(Cl)c3OC[C@H]2C1 (single isomer, unassigned) ?
A) 97%

Q) Could you share which KRasG12C M.S. Binding Mean adduct % value was measured for C=CC(=O)N1CCN2Cc3ccc(-c4c(C)ccc5[nH]ncc45)c(Cl)c3OC[C@@H]2C1 (single isomer, unassigned) [Example 3] ?
A) 80%

Q) Could you share which KRasG12C M.S. Binding Mean adduct % value was measured for C=CC(=O)N1CCN2Cc3cc(F)c(-c4c(O)cccc4Cl)c(F)c3OC[C@H]2C1 (single isomer, unassigned) [Example 42] ?
A) 12%

Q) Could you share which KRasG12C M.S. Binding Mean adduct % value was measured for C=CC(=O)N1CCN2C(=O)c3ccc(-c4c(C)ccc5[nH]ncc45)c(Cl)c3OC[C@H]2C1 (single isomer, unassigned) ?
A) 91%

Q) Could you share which KRasG12C M.S. Binding Mean adduct % value was measured for C=CC(=O)N1CCN2Cc3cc(F)c(-c4c(C)cccc4O)c(F)c3OC[C@H]2C1 (single isomer, unassigned) ?
A) 97%

###

- Test system: MDR1 (Pgp) and BCRP
- ASSAY TEXT: Blood brain barrier penetrant assessment: efflux ratio in MDCK_MDR1_BCRP cells
- Format: in vitro ADME
- TEST SETTINGS: human, MDCK cells doubly transfected with MDR1 (Pgp) and BCRP, ratio of 2 or less = potential for good BBB penetration, read-out: Hu MDCK-MDR1-BCRP (0.1 uM) Mean Efflux Ratio
// efflux ratio at 0.1 uM lookup, one value per entry
Simply state the number, no unit and no words.

MOLECULE	efflux ratio at 0.1 uM
C=CC(=O)N1CCN2Cc3cc(F)c(-c4c(O)cccc4C(F)(F)F)c(F)c3OC[C@H]2C1 (single isomer, unassigned)	0.9
C#Cc1cc2c(c(Cl)c1-c1c(O)cccc1F)OC[C@H]1CN(C(=O)C=C)CCN1C2 (single isomer, unassigned)	0.7

Q) Checklist item: efflux ratio at 0.1 uM tested on MDR1 (Pgp) and BCRP, entry C#Cc1c2c(cc(F)c1-c1c(C)cccc1O)CN1CCN(C(=O)C=C)C[C@@H]1CO2 (single isomer, unassigned) , value?
A) 1.4

Q) Checklist item: efflux ratio at 0.1 uM tested on MDR1 (Pgp) and BCRP, entry C=CC(=O)N1CCN2Cc3ccc(-c4c(C)ccc5[nH]ncc45)c(Cl)c3OC[C@@H]2C1 (single isomer, unassigned) , value?
A) 0.9

Q) Checklist item: efflux ratio at 0.1 uM tested on MDR1 (Pgp) and BCRP, entry C=CC(=O)N1CCN2Cc3cc(F)c(-c4c(C)cccc4O)c(F)c3OC[C@H]2C1 (single isomer, unassigned) , value?
A) 1.3
